molecular target: ferroportin (Homo sapiens, UniProt Q9NP59); test: FPN activity assay: internalization/degradation of ferroportin-GFP in stably transfected HEK293 cells (loss of GFP fluorescence); format: cell-based; conditions: ferroportin-GFP HEK293 cells, compound incubated at least 18 hours; read-out: FPN IC50
Sequence (Q9NP59 whole entry): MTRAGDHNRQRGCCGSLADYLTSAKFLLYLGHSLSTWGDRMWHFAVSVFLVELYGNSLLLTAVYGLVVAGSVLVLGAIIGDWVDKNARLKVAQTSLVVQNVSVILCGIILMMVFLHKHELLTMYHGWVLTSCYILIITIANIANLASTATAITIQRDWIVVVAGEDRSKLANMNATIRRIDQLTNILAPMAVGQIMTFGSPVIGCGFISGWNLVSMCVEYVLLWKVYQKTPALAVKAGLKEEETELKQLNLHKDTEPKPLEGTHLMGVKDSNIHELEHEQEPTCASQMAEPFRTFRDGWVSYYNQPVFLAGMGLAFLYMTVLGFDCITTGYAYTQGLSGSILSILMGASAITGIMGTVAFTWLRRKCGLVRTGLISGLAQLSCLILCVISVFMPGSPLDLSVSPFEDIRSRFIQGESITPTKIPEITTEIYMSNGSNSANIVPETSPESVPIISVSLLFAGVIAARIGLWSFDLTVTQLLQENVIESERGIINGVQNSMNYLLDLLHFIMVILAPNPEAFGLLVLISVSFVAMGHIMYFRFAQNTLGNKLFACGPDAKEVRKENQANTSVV
Non-standard residues stand in square brackets, D forms with d. Residues, ends and D or L forms follow the SMILES beside them. Groups on a side chain read outwards from the residue. *: point of attachment. Dip = N[C@H](C(=O)O)C(c1ccccc1)c1ccccc1; Palmitoyl = CCCCCCCCCCCCCCCC(=O)*; Myristoyl = CCCCCCCCCCCCCC(=O)*; Isovaleryl = CC(C)CC(=O)*; Ahx = NCCCCCC(=O)O
recorded-metric: DC50 (nM)
State just the number; it will be interpreted in nM.

INSERT INTO measurements (compound, assay_system, value_observed) VALUES
  ('CCCCCCCCCCCCCC(=O)NCCCCCC(=O)NCCCC[C@H](NC(=O)[C@@H](NC(=O)[C@H](C)NC(=O)[C@@H]1CCCN1C(=O)[C@H](Cc1ccccc1)NC(=O)[C@H](Cc1c[nH]cn1)NC(=O)[C@@H](NC(=O)[C@H](CCC(=O)O)NC(=O)CC(C)C)[C@@H](C)O)[C@@H](C)CC)C(=O)N[C@@H](Cc1ccccc1)C(=O)N[C@@H](CCC(=O)O)C(=O)N1CCC[C@H]1C(=O)N[C@@H](CCCNC(=N)N)C(=O)N[C@H](CO)C(N)=O [compound 247] (Isovaleryl-ETHFPAIK([Ahx-Myristoyl])FEPR[dS]-NH2)', 'ferroportin (Homo sapiens, UniProt Q9NP59)', 1160);

Give its DC50 value. Item: CCCCCCCCCCCCCCCC(=O)NCCCCCC(=O)NCCCC[C@H](NC(=O)[C@@H](NC(=O)[C@H](CC(C)C)NC(=O)[C@@H]1CCCN1C(=O)[C@@H](NC(=O)[C@H](Cc1c[nH]cn1)NC(=O)[C@@H](NC(=O)[C@H](CCC(=O)O)NC(=O)CC(C)C)[C@@H](C)O)C(c1ccccc1)c1ccccc1)[C@@H](C)CC)C(=O)N[C@@H](CC(C)C)C(N)=O [compound 205] (Isovaleryl-ETH[Dip]PLIK([Ahx-Palmitoyl])L-NH2)
37.4

Data origin, for the record: patent US20240066131A1
